Recorded Response by entry
target.system: P.1 Spike (SARS-CoV-2 spike protein, Brazilian variant P.1) (SARS-CoV-2)

binder | Response
Ab 31 scFv-Fc (scFv, V domains shown) VH: QVQLVQSGAEVKKPGSSVKVSCKASGGTFSSYTISWVRQAPGQGLEWMGGIIPILGTPNYAQKFQDRVAITADKSTSTAYMELSSLRSEDTAVYYCAVGSGWYSGFDYWGQGTLVTVSS VL: NFMLTQPHSVSESPGKTVTISCTGSSGSIASNYVQWYQQRPGSAPTTVIYEDSQRPSGVPDRFSGSIDSSSNSASLTISGLKTEDEADYYCQSFHNSNPVIFGGGTKLTVL | 0.0789
Ab 30 scFv-Fc (scFv, V domains shown) VH: QVQLVQSGGGVVQPGKSLRLSCTASGFTFSDFPIHWVRQAPGKGLEWVGVISYDGNIKYYGDSVKGRFTISRDNAKNSLYLQMNSLRVEDTAVYYCARGGSSFDIWGQGTTVTVSS VL: SYELTQPPSVSEAPRQRVTISCSGSTSNIGNNAVSWYQHLPGKAPKLLIYYNERLPSGVSDRFSGSKSGTSASLAISGLRSEDEADYYCAAWDDSLSGHVVFGGGTKLTVL | 0.0766
Ab 38 scFv-Fc (scFv, V domains shown) VH: QVTLKESGPTLVKPTQTLTLTCTFSGFSLTTSGVSVGWIRQPPGKALEWLALIHWDDDKRYSPSLRSRLTITRDTSKNQVVLTVTDMDPADTGTYYCASFIMTVYAEYFEDWGQGTLVTVSS VL: EIVLTQSPATLSVSPGERATLSCRASQSVSSNLAWYQQKPGQAPRLLMYDVSTRATGIPARFSGSGSGTEFSLTISSLQSEDFAVYYCQQRGAWPLTFGGGTKVEIK | 0.228
Ab 29 scFv-Fc (scFv, V domains shown) VH: QVQLQQSGPGLVKPSQTLSLTCAISGDSVSSYSDAWNWIRQSPSRGLEWLGRTYYRSKWYNDYAVSVKSRITINPDTSKNQFSLQLSSVTPEDTAVYYCAREIVATTPFRNYYYGMDVWGQGTTVTVSS VL: NFMLTQPHSVSESPGNTVTISCTRTSGSIASNYVQWYQQRPGSSPTTVIFQDKLRPSGVPDRFSGSIDSSSNSASLTISGLKTEDEADYYCQSYDSSSLWVFGGGTKLTVL | 0.0232

These measurements were taken from patent US20240409617A1.
